target: human orexin-1 receptor (Homo sapiens (Human)); test: In vitro assay: intracellular calcium measurements (FLIPR), antagonistic activity; settings: CHO cells expressing human orexin-1 receptor, orexin-A agonist, geometric mean, read-out: IC50 Ox1
pIC50: −log10 of the molar value.
Where pIC50 equals or exceeds 8, the correct label is 1; where it does not, the label is 0.

>>> classification("Cc1cccc(-c2ccccc2C(=O)N2CCC[C@@]2(C)c2nc3cc(C)c(C)cc3[nH]2)c1")
0
>>> classification("C=C1C[C@@H](c2nc3cc(C(C)(C)C)ccc3[nH]2)N(C(=O)c2ccccc2-n2cccn2)C1")
0
>>> classification("COc1ccc(-n2nccn2)c(C(=O)N2CCC[C@@]2(C)c2nc3c(C)c(Cl)ccc3n2C)c1")
1
>>> classification("C=C1C[C@@H](c2nc3c(OC)ccc(OC)c3[nH]2)N(C(=O)c2cc(C)ccc2-n2nccn2)C1")
0
>>> classification("COc1ccc(-c2ccc(C)cc2)c(C(=O)N2CCC[C@@]2(C)c2nc3ccc(Cl)c(C)c3[nH]2)c1F")
0
>>> classification("Cc1nc(C(=O)N2CCCC2c2nc3c(C)c(C)ccc3[nH]2)c(-c2ccccc2)s1 (stereo not drawn)")
0

###

Property: IC50; scope: individual molecules
target: human orexin-1 receptor (Homo sapiens (Human), UniProt O43613); test: In vitro assay: intracellular calcium measurements (FLIPR), antagonistic activity; details: CHO cells expressing human orexin-1 receptor, orexin-A agonist, geometric mean, read-out: IC50 Ox1
Sequence (O43613 whole entry): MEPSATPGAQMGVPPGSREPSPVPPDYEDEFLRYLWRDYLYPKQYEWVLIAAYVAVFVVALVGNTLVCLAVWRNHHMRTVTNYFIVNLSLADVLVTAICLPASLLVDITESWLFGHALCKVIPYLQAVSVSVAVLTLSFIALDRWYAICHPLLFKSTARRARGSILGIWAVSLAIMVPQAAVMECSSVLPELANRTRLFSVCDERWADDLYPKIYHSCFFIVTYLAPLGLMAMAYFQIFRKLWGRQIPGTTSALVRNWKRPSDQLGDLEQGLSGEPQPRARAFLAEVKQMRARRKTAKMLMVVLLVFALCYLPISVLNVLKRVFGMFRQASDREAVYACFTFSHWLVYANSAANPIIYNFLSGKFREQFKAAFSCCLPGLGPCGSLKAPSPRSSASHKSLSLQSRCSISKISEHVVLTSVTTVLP
Endpoint Label: IC50

>>> observed_measurement("C[C@@]1(c2nc3cc(Cl)c(C(F)(F)F)cc3[nH]2)CCCN1C(=O)c1nc(-c2ccccc2F)sc1-c1ccc(F)cc1 [Ex. 5.289]")
"38 nM"
>>> observed_measurement("Cc1ccc(-c2ncccn2)c(C(=O)N2CCC[C@@]2(C)c2nc3cc(C)c(C)cc3[nH]2)c1 [Ex. 5.284]")
"10 nM"
>>> observed_measurement("Cc1ccc(-c2cccc(OC(F)(F)F)c2)c(C(=O)N2CCC[C@@]2(C)c2nc3cc(C(F)(F)F)ccc3[nH]2)c1 [Ex. 5.184]")
"300 nM"
>>> observed_measurement("COc1ccc(-n2nccn2)c(C(=O)N2CCC[C@H]2c2nc3cccc(SC)c3[nH]2)c1 [Ex. 1.166]")
"45 nM"
>>> observed_measurement("Cc1ccc(-c2ccc(C#N)cc2)c(C(=O)N2CCC[C@@]2(C)c2nc3cc(C(F)(F)F)c(Cl)cc3[nH]2)c1 [Ex. 5.160]")
"38 nM"

###

target: UniProt:O43614; assay: In vitro assay: intracellular calcium measurements (FLIPR), antagonistic activity; details: CHO cells expressing human orexin-2 receptor, orexin-A agonist, geometric mean, read-out: IC50 Ox2
Property: IC50; scope: individual compounds
Endpoint Label: IC50 (nM)

>>> observed_measurement("COc1cccc(-c2sc(C)nc2C(=O)N2CC[C@H](C)[C@H]2c2nc3c(Cl)cccc3[nH]2)c1")
475
>>> observed_measurement("COc1ccccc1-c1nc(C(=O)N2CCC[C@@]2(C)c2nc3c(C)c(Cl)ccc3[nH]2)c(-c2ccc(F)cc2)s1")
858
>>> observed_measurement("CSc1cccc2nc([C@@H]3CCCN3C(=O)c3ccccc3-n3nccn3)[nH]c12")
17
>>> observed_measurement("C=C1C[C@@H](c2nc3ccc(Cl)c(C)c3[nH]2)N(C(=O)c2nc(C)ccc2-n2nccn2)C1")
4
>>> observed_measurement("Cc1ccc(C(=O)N2CC[C@H](C)[C@H]2c2nc3c(C)c(Cl)ccc3[nH]2)c(-n2nccn2)c1")
19

###

biological target: human orexin-1 receptor (Homo sapiens (Human), UniProt O43613); test: In vitro assay: intracellular calcium measurements (FLIPR), antagonistic activity; settings: CHO cells expressing human orexin-1 receptor, orexin-A agonist, geometric mean, read-out: IC50 Ox1
# strict inequality: IC50 < 200 nM yields true, everything else yields false

>>> classification("C=C1C[C@@H](c2nc3cc(C(C)(C)C)ccc3[nH]2)N(C(=O)c2c(C)cccc2-n2nccn2)C1")
"false"
>>> classification("Cc1cc(C(=O)N2CCC[C@@]2(C)c2nc3cc(C)c(C)cc3n2C)c(-n2nccn2)cc1C")
"true"
>>> classification("Cc1ccc(C(=O)N2CC[C@H](C)[C@H]2c2nc3cc(Cl)c(C)cc3[nH]2)c(-c2ccccn2)c1")
"true"
>>> classification("COc1ccc2nc([C@@H]3CCCN3C(=O)c3cncnc3-c3ccc(Br)c(Cl)c3)[nH]c2c1")
"false"
>>> classification("Cc1cccc(-c2nc(C(=O)N3CCC[C@@]3(C)c3nc4c(C)c(Cl)ccc4[nH]3)c(-c3ccc(F)cc3)s2)c1")
"true"
>>> classification("COc1cccc(C#Cc2ccccc2C(=O)N2CC[C@H](C)[C@H]2c2nc3c(C)c(Cl)ccc3[nH]2)c1")
"true"
>>> classification("Cc1ccc(-c2ccc(F)cc2)c(C(=O)N2CCC[C@@]2(C)c2nc3cc(C(F)(F)F)ccc3[nH]2)c1")
"true"

###

target: human orexin-2 receptor (Homo sapiens (Human)); test: In vitro assay: intracellular calcium measurements (FLIPR), antagonistic activity; conditions: CHO cells expressing human orexin-2 receptor, orexin-A agonist, geometric mean, read-out: IC50 Ox2
Endpoint Label: IC50 (µM)

>>> observed_measurement("C=C1C[C@@H](c2nc3cc(OC)ccc3[nH]2)N(C(=O)c2ccccc2-c2cccc(C)c2)C1 [Ex. 6.14]")
0.012
>>> observed_measurement("COc1ccc(-c2ccc(C(F)(F)F)cc2)c(C(=O)N2CCC[C@@]2(C)c2nc3ccc(Cl)c(C)c3[nH]2)c1F [Ex. 5.305]")
0.041
>>> observed_measurement("C=C1C[C@@H](c2nc3cc(C(C)(C)C)ccc3[nH]2)N(C(=O)c2ccccc2-n2cccn2)C1 [Ex. 6.172]")
0.067
>>> observed_measurement("Cc1ccc(-c2ccccn2)c(C(=O)N2CCC[C@@]2(C)c2nc3cc(OC(F)(F)F)ccc3[nH]2)c1 [Ex. 5.239]")
0.594
>>> observed_measurement("Cc1nc(C(=O)N2CCC[C@@]2(C)c2nc3c(C)c(Cl)ccc3[nH]2)c(-c2cccc(Cl)c2)s1 [Ex. 5.5]")
0.005
>>> observed_measurement("Cc1ccc(-c2ccc(F)cc2)c(C(=O)N2CCC[C@@]2(C)c2nc3cc(C)c(C)cc3n2C)c1 [Ex. 7.15]")
0.065
>>> observed_measurement("Cc1ccc(-n2cccn2)c(C(=O)N2CCC[C@@]2(C)c2nc3c(C)c(Cl)ccc3[nH]2)c1 [Ex. 5.43]")
0.014
>>> observed_measurement("Cc1c(Br)cc2[nH]c([C@]3(C)CCCN3C(=O)c3ccccc3-c3ccccc3)nc2c1C [Ex. 5.269]")
0.022
>>> observed_measurement("Cc1ccc(-c2sc(N(C)C)nc2C(=O)N2CC[C@H](C)[C@H]2c2nc3c(Cl)cccc3[nH]2)cc1C [Ex. 4.128]")
0.387
>>> observed_measurement("COc1ccc(-c2ccc(OC)c(F)c2C(=O)N2CCC[C@@]2(C)c2nc3c(C)c(Cl)ccc3[nH]2)cc1 [Ex. 5.297]")
0.057
>>> observed_measurement("COc1ccc(-n2nccn2)c(C(=O)N2CCC[C@@]2(C)c2nc3cc(C(F)(F)F)c(Cl)cc3[nH]2)c1F [Ex. 5.146]")
0.043
>>> observed_measurement("Cc1c(Cl)ccc2[nH]c([C@]3(C)CCCN3C(=O)c3cc(F)ccc3-c3ccccc3)nc12 [Ex. 5.218]")
0.036
>>> observed_measurement("COc1cc(C(=O)N2CCC[C@H]2c2nc3ccc(SC)cc3[nH]2)c(-n2nccn2)cc1OC [Ex. 1.155]")
0.016
>>> observed_measurement("COc1ccc(-c2cccc(C#N)c2)c(C(=O)N2CCC[C@@]2(C)c2nc3c(C)c(Cl)ccc3[nH]2)c1F [Ex. 5.307]")
0.049
>>> observed_measurement("C=C1C[C@@H](c2nc3ccc(Cl)c(C)c3[nH]2)N(C(=O)c2nc(C)sc2-c2cc(C)cc(C)c2)C1 [Ex. 6.124]")
0.004
>>> observed_measurement("C=C1C[C@@H](c2nc3cc(SC)ccc3[nH]2)N(C(=O)c2cc(C)ccc2-n2nccn2)C1 [Ex. 6.60]")
0.003
>>> observed_measurement("Cc1cccc(-c2ccc(C)cc2C(=O)N2CCC[C@@]2(C)c2nc3c(C)c(C)ccc3[nH]2)c1 [Ex. 5.111]")
0.007
>>> observed_measurement("COc1cc2nc([C@]3(C)CCCN3C(=O)c3nc(C)ccc3-n3nccn3)[nH]c2cc1OC [Ex. 5.85]")
0.114

###

Target: human orexin-2 receptor (Homo sapiens (Human), UniProt O43614)
Sequence (O43614 whole entry): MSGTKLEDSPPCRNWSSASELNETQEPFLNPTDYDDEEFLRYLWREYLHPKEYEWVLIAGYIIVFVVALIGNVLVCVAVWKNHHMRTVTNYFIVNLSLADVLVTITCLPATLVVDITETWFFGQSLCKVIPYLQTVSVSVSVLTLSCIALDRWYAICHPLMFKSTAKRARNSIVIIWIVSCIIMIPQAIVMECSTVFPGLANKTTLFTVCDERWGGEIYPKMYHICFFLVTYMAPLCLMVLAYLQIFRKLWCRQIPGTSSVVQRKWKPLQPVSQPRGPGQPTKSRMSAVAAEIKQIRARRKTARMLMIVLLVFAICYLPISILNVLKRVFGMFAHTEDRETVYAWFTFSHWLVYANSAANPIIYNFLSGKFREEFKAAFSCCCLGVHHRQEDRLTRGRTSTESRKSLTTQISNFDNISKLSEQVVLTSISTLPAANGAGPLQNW
Experiment: In vitro assay: intracellular calcium measurements (FLIPR), antagonistic activity
Settings: CHO cells expressing human orexin-2 receptor, orexin-A agonist, geometric mean, read-out: IC50 Ox2
Protocol: In Vitro Assay: Intracellular Calcium Measurements: […] Within the Fluorescent Imaging Plate Reader (FLIPR Tetra, Molecular Devices), antagonists are added to the plate in a volume of 10 μl/well, incubated for 120 min and finally 10 μl/well of agonist is added. […] The calculated IC50 values may fluctuate depending on the daily cellular assay performance. […]
pIC50: −log10 of the molar value.
Endpoint Label: pIC50

>>> observed_measurement("COc1cc2nc([C@]3(C)CCCN3C(=O)c3cc(C)ccc3-n3cccn3)[nH]c2cc1OC")
7.82
>>> observed_measurement("C=C1C[C@@H](c2nc3cc(C)c(C)cc3[nH]2)N(C(=O)c2ccc(C)cc2-n2nccn2)C1")
8.52
>>> observed_measurement("COc1ccc(-n2nccn2)c(C(=O)N2CCC[C@@]2(C)c2nc3c(F)c(F)ccc3[nH]2)c1F")
5.86
>>> observed_measurement("C=C1C[C@@H](c2nc3cc(C(F)(F)F)c(Cl)cc3[nH]2)N(C(=O)c2nc(C)sc2-c2ccc(C)c(C)c2)C1")
7.66
